- TEST_SYSTEM: IL36R
- RUN_DESCRIPTION: Kd (SPR)
Recorded pKd, one value per entry.
Scale note: pKd = -log10(concentration in M).

[[record]]
binder = "unnamed (protein) chain 1: QVQLVQSGAEVKKPGASVKVSCKASGYSFTSSWIHWVKQAPGQGLEWMGEINPGNVRTNYNENFRNKVTMTVDTSISTAYMELSRLRSDDTAVYYCTTVRYGEPYFDYWGQGTLVTVSS chain 2: QIVLTQSPGTLSLSPGERATMTCTASSSVSSSYFHWYQQKPGQAPRLWIYRTSRLASGVPDRFSGSGSGTDFTLTISRLEPEDAATYYCHQFHRSPLTFGAGTKLEIK"
observed_result = 9.05


Turning now to a further record.
Could you tell me which pKd is on file for unnamed (protein) chain 1: QVQLVQSGAEVKKPGASVKVSCKASGYTFTSSWIHWVKQAPGQGLEWMGEIYPGNSNTNYNENFRNKVTMTVDTSISTAYMELSRLRSDDTAVYYCTRVQYGEPYFDYWGQGTLVTVSS chain 2: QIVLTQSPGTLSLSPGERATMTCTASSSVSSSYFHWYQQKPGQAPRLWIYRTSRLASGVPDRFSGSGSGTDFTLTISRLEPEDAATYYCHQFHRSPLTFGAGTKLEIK ?
8.56
